Tested on: Italian ryegrass (Lolium multiflorum)
EXPERIMENT_DESCRIPTION: Test A preemergence, visual plant response rating
Type: in vivo
PARTICULARS: 500 g ai/ha Preemergence; approx. 10 days
Returns one of YES or NO; YES when Ryegrass, Italian plant response rating (0 to 100 scale) is >= 50.

Below, 5 compounds whose answers are already recorded.
CCO/N=C(\c1c(O)c(C)nn(C)c1=O)c1ccc(F)c2ccccc12 = YES
CON=C(c1c(O)c(C)nn(C)c1=O)c1csc2ccccc12 (single isomer, unassigned) = NO
CO/N=C(\c1cccc(C)c1F)c1c(O)c(C)nn(C)c1=O = NO
CO/N=C(\c1cccc(Cl)c1)c1c(O)c(C)nn(C)c1=O = YES
CO/N=C(/c1ccccc1F)c1c(O)c(C)nn(C)c1=O = NO

Input: I'd appreciate it if you could say whether CON=C(c1c(O)c(C)nn(C)c1=O)c1cccc2sccc12 [Compound 59] has Ryegrass, Italian plant response rating (0 to 100 scale) at least equal to 50.
Output: YES

###

Tested on: ragweed (common ragweed, Ambrosia artemisiifolia)
EXPERIMENT_DESCRIPTION: Test C postemergence, visual plant response rating
Type: in vivo
PARTICULARS: Test C, postemergence, 125 g ai/ha
OBSERVED_PROPERTY: Ragweed plant response rating (0 to 100 scale)
Answers are plain numbers.

Consider the worked cases shown below.
CCO/N=C(\c1c(O)cnn(C)c1=O)c1ccc(F)c2ccccc12 = 40
CO/N=C(\c1c(O)cnn(C)c1=O)c1ccc(F)c2ccccc12 = 20

We now examine a further compound.
Input: Could you share what Ragweed plant response rating (0 to 100 scale) was measured for `C#CCO/N=C(/c1c(O)c(Cl)nn(C)c1=O)c1ccc(F)c2ccccc12` , tested on ragweed (common ragweed, Ambrosia artemisiifolia)?
Output: 100

###

Would you kindly list Ragweed plant response rating (0 to 100 scale) for each of these compounds?
Tested on: ragweed (common ragweed, Ambrosia artemisiifolia)
EXPERIMENT_DESCRIPTION: Test C preemergence, visual plant response rating
Type: in vivo
PARTICULARS: 125 g ai/ha
One number for each entry.

Before answering, review these 4 worked examples.
CON=C(c1cc(C)cc(Cl)c1)c1c(O)c(C)nn(C)c1=O = 90
CON=C(c1csc(C)c1)c1c(O)c(C)nn(C)c1=O = 0
C#CCO/N=C(/c1ccc(F)c(Br)c1)c1c(O)c(C)nn(C)c1=O = 0
CO/N=C(\c1cc(Cl)cc(Br)c1)c1c(O)c(C)nn(C)c1=O = 100

Turning now to a further record.
Input: Need Ragweed plant response rating (0 to 100 scale) of `CO/N=C(\c1cc(F)cc(F)c1C)c1c(O)c(C)nn(C)c1=O` , thanks.
Output: 40

###

Assignment: determine reported Blackgrass plant response rating (0 to 100 scale) for the given compounds.
System: blackgrass (Alopecurus myosuroides)
EXPERIMENT_DESCRIPTION: Test C postemergence, visual plant response rating
Type: in vivo
PARTICULARS: Postemergence, 31 g ai/ha
Give bare numbers.

Hi, could you look up Blackgrass plant response rating (0 to 100 scale) for each item in my list?
1. CO/N=C(\c1ccc(Cl)c(Cl)c1)c1c(O)c(C)nn(C)c1=O [Compound 217]
2. CON=C(c1cc(C)cc(Cl)c1)c1c(O)c(C)nn(C)c1=O [Compound 174]
3. Cc1nn(C)c(=O)c(/C(=N\OC(C)C)c2cccc3cc(Cl)ccc23)c1O [Compound 241]
4. CO/N=C(/c1c(O)c(C)nn(C)c1=O)c1cc(SC)cc2ccccc12 [Compound 298]
5. CON=C(c1cc(Cl)cc(Cl)c1F)c1c(O)c(C)nn(C)c1=O [Compound 299]

Output:
1: 0; 2: 30; 3: 20; 4: 0; 5: 80

Value source: patent US20210045385A1
